Test system: aphids, Myzus persicae
Experiment: Potter tower spray on aphids, knockdown and mortality
Type: in vivo
Settings: Myzus persicae, 48 h, Aphids, 0.1 % w/v, 48 hours post application; read-out: Average of % corrected affected
Below, each entry is listed alongside its reported pest or weed control at 0.1 % strength.
Property Name: pest or weed control at 0.1 % strength

compound="CC(=O)N=S(C)(=O)C(C)c1ccc(C(F)(F)F)nc1 (stereo not drawn)" property_name="pest or weed control at 0.1 % strength" assay_value="40 to 59%"
compound="COC(=O)N=S(C)(=O)C(C)c1ccc(C(F)(F)F)nc1 (stereo not drawn)" property_name="pest or weed control at 0.1 % strength" assay_value="20 to 39%"
compound=N#CCN(Cc1ccc(Cl)nc1)C1=CC(=O)OC1 property_name="pest or weed control at 0.1 % strength" assay_value="1 to 19%"
compound=COC(CN(Cc1ccc(Cl)nc1)C1=CC(=O)OC1)OC property_name="pest or weed control at 0.1 % strength" assay_value="1 to 19%"
compound=CCOC(=O)CN(Cc1ccc(Cl)nc1)C1=CC(=O)OC1 property_name="pest or weed control at 0.1 % strength" assay_value="20 to 39%"
compound="CC(c1ccc(C(F)(F)F)nc1)S(C)(=O)=NS(C)(=O)=O (stereo not drawn)" property_name="pest or weed control at 0.1 % strength" assay_value="20 to 39%"

Cited source: patent US20160212997A1
